EXPERIMENTAL_PROTOCOL: Elimination half life in human at 0.43 mg/kg, iv
Assay type: ADME, organism-based
Set-up: dose 0.43 mg/kg, route intravenous
MEASUREMENT_CONDITIONS: in vivo, read-out: beta t1/2 (converted)
MEASUREMENT_TYPE: half-life (h)
One number for each entry, in h.

Input line: Param item = CCOc1ncc(S(=O)(=O)N2CCN(CC)CC2)cc1-c1nc2c(CC)n(CCOC)nc2c(=O)[nH]1 ; retrieve measured half-life.
Output line: 2.6

* * *

Organism: Homo sapiens
EXPERIMENTAL_PROTOCOL: Selectivity ratio of IC50 for PDE6 to IC50 for human PDE5
Mark t only when Ratio IC50 stays strictly below 200. Values equal to the cut-off are f.

Reference set, count: 2
[
  {
    "COMPOUND": "CCCCOc1ncc(S(=O)(=O)N2CCN(CC)CC2)cc1-c1nc2c(CC)n(CCN(C)C)nc2c(=O)[nH]1",
    "CLASS": "t"
  },
  {
    "COMPOUND": "CCc1c2nc(-c3cc(S(=O)(=O)N4CCN(CC)CC4)cnc3OCC3CC3)[nH]c(=O)c2nn1CCN1CCOCC1",
    "CLASS": "t"
  }
]

Input line: Answer whether the compound CCOc1ncc(S(=O)(=O)N2CCN(CC)CC2)cc1-c1nc2c(CC)n(C3CN(C)C3)nc2c(=O)[nH]1 has Ratio IC50 strictly less than 200
Output line: t

Input line: Subsequent entry: CCCOc1ncc(S(=O)(=O)N2CCN(CC)CC2)cc1-c1nc2c3n(nc2c(=O)[nH]1)CCCC3
Output line: t

Input line: Now the compound CCc1c2nc(-c3cc(S(=O)(=O)N4CCN(CC)CC4)cnc3OCCOC)[nH]c(=O)c2nn1CC1CC1
Output line: t

Input line: Same question, CCN1CCN(S(=O)(=O)c2cnc(OCCOC)c(-c3nc4c5n(nc4c(=O)[nH]3)CCCC5C)c2)CC1 (single isomer, unassigned; (-)) this time
Output line: f
